# growth inhibition listing for each entry below
- Protocol Description: NCI Yeast Anticancer Drug Screen. Data for the cln2 rad14 strain (AID 165);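 further: 0% = growth equal to vehicle treated cultures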
- Condition Summary: S. cerevisiae cln2 rad14 strain, at 50.0 µM, hits give high values
The panel holds about 79,000 compounds, 15% with a hit somewhere; the sample as a whole holds those more often.
Measured Metric: growth inhibition (%)

compound=COC(=O)/C=C/c1ccc2c(c1)CCCC2 endpoint_result=-8.7
compound="COc1cc(C2c3cc4c(cc3OC(N3CCCCC3)C2C)OCO4)cc(OC)c1O (stereo unspecified)" endpoint_result=6.95
compound="O=C=Nc1ccc(Cc2ccc(N=C=O)cc2)cc1 (tested in a mixture with another compound)" endpoint_result=8.95
compound=COC(=O)[C@H]1C=C[C@@H](C)n2c(=O)c3ccccc3c(=O)n21 endpoint_result=-9.75
compound=CC(=O)c1c2c(cc3c1CCC3)CCC2 endpoint_result=-26
compound=C[N+]1(C)C/C(=C\c2ccc(O)cc2)C(=O)/C(=C/c2ccc(O)cc2)C1 endpoint_result=-6
compound=COC(=O)c1ccc(N(C)CCC(=O)COC(C)=O)cc1 endpoint_result=-10.2
compound=S=C(NCN1CCNCC1)C(=S)NCN1CCNCC1 endpoint_result=-12.1
compound=O=C(NCCN1CCOCC1)c1ccc(C(=O)NCCN2CCOCC2)cc1 endpoint_result=17.5
compound="Cc1ccc(C2=Nc3ccccc3SC(c3cccc([N+](=O)[O-])c3)C2)cc1 (stereo unspecified)" endpoint_result=-9.25
compound=CCCC(CCC)C(=O)O endpoint_result=7.9

Data origin: PubChem BioAssay (NCI)
